# credit: the supplement of paper PMC7877785

procedure summary: self-splicing fitness, log relative to wild type (ln ratio); higher = more splicing; Tetrahymena group I intron in knt gene, E. coli kanamycin selection, DiMSum; sequences stand for … in CUCUCU…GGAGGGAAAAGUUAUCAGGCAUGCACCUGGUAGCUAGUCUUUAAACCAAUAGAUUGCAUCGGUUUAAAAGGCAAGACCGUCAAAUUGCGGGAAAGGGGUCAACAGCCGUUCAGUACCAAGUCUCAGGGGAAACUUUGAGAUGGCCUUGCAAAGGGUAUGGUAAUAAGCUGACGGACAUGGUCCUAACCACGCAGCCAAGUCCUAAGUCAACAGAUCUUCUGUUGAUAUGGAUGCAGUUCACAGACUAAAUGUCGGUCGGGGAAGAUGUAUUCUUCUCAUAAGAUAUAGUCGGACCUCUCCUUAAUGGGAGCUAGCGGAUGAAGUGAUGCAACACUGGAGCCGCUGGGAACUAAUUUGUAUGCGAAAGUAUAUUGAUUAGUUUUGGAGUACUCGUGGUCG;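 note: selection with 25 µg/mL kanamycin versus none on LB agar overnight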
experimental parameters: 37 °C
attribute measured: self-splicing fitness (ln)

Exam item: Please give the measured self-splicing fitness (ln) for this sequence: GCUCAGCAAUAUUACGUCUG
Marked response: -1.99

Exam item: Please give the measured self-splicing fitness (ln) for this sequence: GUCCAGCAAUAUUACGUUUG
Marked response: -0.981

====

procedure summary: self-splicing fitness, log relative to wild type (ln ratio); higher = more splicing; Tetrahymena group I intron in knt gene, E. coli kanamycin selection, DiMSum; sequences stand for … in CUCUCU…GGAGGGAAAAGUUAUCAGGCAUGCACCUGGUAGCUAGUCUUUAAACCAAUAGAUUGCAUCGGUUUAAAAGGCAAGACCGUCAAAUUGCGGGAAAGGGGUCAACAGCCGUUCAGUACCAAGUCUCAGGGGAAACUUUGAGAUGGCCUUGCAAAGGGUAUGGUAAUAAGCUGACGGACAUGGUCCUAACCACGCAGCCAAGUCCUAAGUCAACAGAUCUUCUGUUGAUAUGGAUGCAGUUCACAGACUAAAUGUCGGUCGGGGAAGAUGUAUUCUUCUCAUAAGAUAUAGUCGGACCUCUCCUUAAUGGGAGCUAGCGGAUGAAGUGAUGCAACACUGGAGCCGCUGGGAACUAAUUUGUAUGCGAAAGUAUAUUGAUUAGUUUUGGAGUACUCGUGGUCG
experimental parameters: 30 °C
Label scheme for self-splicing fitness (ln): lower than -2 is F, -2 and above is T.

Worked set:
{"columns": ["seq", "class assignment"],
 "data": [
  ["AAAAAGCAAUAUUACGACAC", "T"],
  ["CCGAAGCAAUAUUACGAUAC", "F"]
]}

Exam item: Reported self-splicing fitness (ln) reaches at least -2 for AUUCAGCAAUAUUACGAGGA ?
Marked response: F

Exam item: Reported self-splicing fitness (ln) reaches at least -2 for CGCGAGCAAUAUUACGUGGA ?
Marked response: F

Exam item: Reported self-splicing fitness (ln) reaches at least -2 for GACAAGCAAUAUUACGUAAC ?
Marked response: T

Exam item: Reported self-splicing fitness (ln) reaches at least -2 for GAAUAGCAAUAUUACGUUUC ?
Marked response: F

Exam item: Reported self-splicing fitness (ln) reaches at least -2 for UAUCAGCAAUAUUACGGGGG ?
Marked response: T

Exam item: Reported self-splicing fitness (ln) reaches at least -2 for UUUUAGCAAUAUUACGUGAU ?
Marked response: F

====

procedure summary: self-splicing fitness, log relative to wild type (ln ratio); higher = more splicing; Tetrahymena group I intron in knt gene, E. coli kanamycin selection, DiMSum; sequences stand for … in CUCUCU…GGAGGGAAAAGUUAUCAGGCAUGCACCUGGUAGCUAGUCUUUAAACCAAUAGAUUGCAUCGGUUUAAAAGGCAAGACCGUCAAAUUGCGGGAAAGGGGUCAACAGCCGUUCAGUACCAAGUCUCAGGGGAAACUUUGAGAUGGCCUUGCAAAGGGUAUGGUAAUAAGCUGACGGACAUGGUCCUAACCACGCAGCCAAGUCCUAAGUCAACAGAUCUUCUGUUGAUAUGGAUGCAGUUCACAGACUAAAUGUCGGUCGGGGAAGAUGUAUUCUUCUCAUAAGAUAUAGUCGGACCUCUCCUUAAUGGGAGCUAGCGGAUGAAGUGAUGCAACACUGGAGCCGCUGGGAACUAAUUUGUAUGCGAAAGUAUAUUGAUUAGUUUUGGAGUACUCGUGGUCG
experimental parameters: 37 °C
attribute measured: self-splicing fitness (ln)
Answer using only a numeral; do not append any unit.

Exam item: Please give the measured self-splicing fitness (ln) for this sequence: CGAAAGCAAUAUUACGAGUA
Marked response: -2.36

Exam item: Please give the measured self-splicing fitness (ln) for this sequence: GGUCAGCAAUAUUACGAUUC
Marked response: -0.325

Exam item: Please give the measured self-splicing fitness (ln) for this sequence: GCGCAGCAAUAUUACGGUGU
Marked response: -2.47

Exam item: Please give the measured self-splicing fitness (ln) for this sequence: CUCGAGCAAUAUUACGUGUG
Marked response: -1.27

Exam item: Please give the measured self-splicing fitness (ln) for this sequence: ACACAGCAAUAUUACGCCAA
Marked response: -2.54

Exam item: Please give the measured self-splicing fitness (ln) for this sequence: CAAAAGCAAUAUUACGGGUG
Marked response: -0.361

Exam item: Please give the measured self-splicing fitness (ln) for this sequence: AGUUAGCAAUAUUACGUUAG
Marked response: -2.72

Exam item: Please give the measured self-splicing fitness (ln) for this sequence: ACGAAGCAAUAUUACGGGAA
Marked response: -1.31

Exam item: Please give the measured self-splicing fitness (ln) for this sequence: GGCCAGCAAUAUUACGGGAU
Marked response: -0.354

Exam item: Please give the measured self-splicing fitness (ln) for this sequence: GUACAGCAAUAUUACGCGGA
Marked response: -0.988

Exam item: Please give the measured self-splicing fitness (ln) for this sequence: GAGGAGCAAUAUUACGCUCC
Marked response: -0.714

Exam item: Please give the measured self-splicing fitness (ln) for this sequence: UCUGAGCAAUAUUACGCCCU
Marked response: -1.62

Exam item: Please give the measured self-splicing fitness (ln) for this sequence: UUUUAGCAAUAUUACGAAGA
Marked response: -1.21

Exam item: Please give the measured self-splicing fitness (ln) for this sequence: ACUUAGCAAUAUUACGCGCG
Marked response: -0.437

Exam item: Please give the measured self-splicing fitness (ln) for this sequence: CCCAAGCAAUAUUACGACAU
Marked response: -2.8

Exam item: Please give the measured self-splicing fitness (ln) for this sequence: ACACAGCAAUAUUACGCUCC
Marked response: -0.566

Exam item: Please give the measured self-splicing fitness (ln) for this sequence: AUCCAGCAAUAUUACGUCCU
Marked response: -0.253

====

procedure summary: self-splicing fitness, log relative to wild type (ln ratio); higher = more splicing; Tetrahymena group I intron in knt gene, E. coli kanamycin selection, DiMSum; sequences stand for … in CUCUCU…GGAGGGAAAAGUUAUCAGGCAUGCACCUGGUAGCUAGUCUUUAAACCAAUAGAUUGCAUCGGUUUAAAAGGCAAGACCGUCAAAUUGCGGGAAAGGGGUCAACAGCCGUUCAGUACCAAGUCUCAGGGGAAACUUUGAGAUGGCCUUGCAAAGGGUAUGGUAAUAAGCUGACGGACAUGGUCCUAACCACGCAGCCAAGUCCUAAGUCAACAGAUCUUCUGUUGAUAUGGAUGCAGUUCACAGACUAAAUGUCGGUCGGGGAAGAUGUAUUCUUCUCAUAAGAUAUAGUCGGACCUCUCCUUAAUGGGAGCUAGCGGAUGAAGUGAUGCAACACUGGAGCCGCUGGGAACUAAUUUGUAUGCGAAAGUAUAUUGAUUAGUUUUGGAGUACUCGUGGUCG
experimental parameters: 37 °C
Recorded self-splicing fitness (ln) values for a group of sequences are listed next.
Answer using only a numeral; do not append any unit.

Look over these answered cases.
{"columns": ["seq", "attribute measured", "numeric readout"],
 "data": [
  ["AACAAGCAAUAUUACGCCAU", "self-splicing fitness (ln)", -2.08],
  ["AGGCAGCAAUAUUACGCACU", "self-splicing fitness (ln)", -0.863],
  ["CUAUAGCAAUAUUACGCACG", "self-splicing fitness (ln)", -0.255],
  ["GCGAAGCAAUAUUACGCAUU", "self-splicing fitness (ln)", -2.15],
  ["UUGCAGCAAUAUUACGGCGC", "self-splicing fitness (ln)", -1.84],
  ["AUACAGCAAUAUUACGGGUA", "self-splicing fitness (ln)", -0.645],
  ["GCAGAGCAAUAUUACGAACC", "self-splicing fitness (ln)", -1.24],
  ["UCUGAGCAAUAUUACGUGCG", "self-splicing fitness (ln)", -1.34]
]}

Exam item: Please give the measured self-splicing fitness (ln) for this sequence: CCUGAGCAAUAUUACGACUC
Marked response: -1.6

Exam item: Please give the measured self-splicing fitness (ln) for this sequence: GCCGAGCAAUAUUACGAGCG
Marked response: -0.618

Exam item: Please give the measured self-splicing fitness (ln) for this sequence: AAAGAGCAAUAUUACGGCGG
Marked response: -2.21

Exam item: Please give the measured self-splicing fitness (ln) for this sequence: UAGUAGCAAUAUUACGAUUU
Marked response: -0.988

Exam item: Please give the measured self-splicing fitness (ln) for this sequence: UUUGAGCAAUAUUACGCAUU
Marked response: -1.09

Exam item: Please give the measured self-splicing fitness (ln) for this sequence: GGCAAGCAAUAUUACGUCCG
Marked response: -1.61

Exam item: Please give the measured self-splicing fitness (ln) for this sequence: GUCAAGCAAUAUUACGAUCA
Marked response: -0.845

Exam item: Please give the measured self-splicing fitness (ln) for this sequence: ACUUAGCAAUAUUACGGAGA
Marked response: -2.07

Exam item: Please give the measured self-splicing fitness (ln) for this sequence: ACCGAGCAAUAUUACGACCA
Marked response: -0.694

Exam item: Please give the measured self-splicing fitness (ln) for this sequence: UGGCAGCAAUAUUACGGUAC
Marked response: -2.01

Exam item: Please give the measured self-splicing fitness (ln) for this sequence: GAGGAGCAAUAUUACGGAUG
Marked response: -2.48

Exam item: Please give the measured self-splicing fitness (ln) for this sequence: UUAUAGCAAUAUUACGCGUU
Marked response: -2.16

Exam item: Please give the measured self-splicing fitness (ln) for this sequence: UAUAAGCAAUAUUACGAGUG
Marked response: -0.16

Exam item: Please give the measured self-splicing fitness (ln) for this sequence: GUUGAGCAAUAUUACGUUGG
Marked response: -2.01

Exam item: Please give the measured self-splicing fitness (ln) for this sequence: UGAGAGCAAUAUUACGGGCU
Marked response: -2.6

Exam item: Please give the measured self-splicing fitness (ln) for this sequence: GGUAAGCAAUAUUACGGAAG
Marked response: -2.56

Exam item: Please give the measured self-splicing fitness (ln) for this sequence: AGGUAGCAAUAUUACGUUUA
Marked response: -1.33

Exam item: Please give the measured self-splicing fitness (ln) for this sequence: AAUCAGCAAUAUUACGAUUU
Marked response: -0.714
